src = paper PMC8119466

molecular target: recombinant PRL-1 (Homo sapiens, UniProt Q93096); construct: 6xHis (N, cleaved yes); made in house; host or cells: E. coli One Shot BL21 Star; experiment: In vitro phosphatase assay (DiFMUP hydrolysis), PRL-1; type: biochemical; conditions: FDA-approved drug screen; compared to DMSO; also: test concentration or dose not given here
Sequence (Q93096 whole entry): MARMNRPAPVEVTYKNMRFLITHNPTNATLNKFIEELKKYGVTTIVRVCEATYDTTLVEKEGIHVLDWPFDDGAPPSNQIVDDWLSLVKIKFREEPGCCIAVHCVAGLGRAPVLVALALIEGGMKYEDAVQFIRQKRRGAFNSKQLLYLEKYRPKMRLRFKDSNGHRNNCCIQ
Structures can show the parent of a compound that is named as a salt.
READOUT: % Phosphatase Activity (compared to DMSO) PRL-1 (%)
Numbers only, in %.

Give % Phosphatase Activity (compared to DMSO) PRL-1 for all compounds that follow.
1. Nc1nc2[nH]cc(CCc3ccc(C(=O)N[C@@H](CCC(=O)O)C(=O)O)cc3)c2c(=O)[nH]1
2. CNC(=O)c1cc(Oc2ccc(NC(=O)Nc3ccc(Cl)c(C(F)(F)F)c3)c(F)c2)ccn1

Data returned:
1. 92
2. 86

Give % Phosphatase Activity (compared to DMSO) PRL-1 for all compounds that follow.
1. CCOc1cc(N)c(Cl)cc1C(=O)NCC1CN(Cc2ccc(F)cc2)CCO1 (centres unmarked) [Mosapride Citrate]
2. CN(C)[C@@H](CCOc1cccc2ccccc12)c1ccccc1 [Dapoxetine HCl]
3. CC(=O)NC(CCC(N)=O)C(=O)O (centres unmarked) [Aceglutamide]

Data returned:
88
99
107

Give % Phosphatase Activity (compared to DMSO) PRL-1 for all compounds that follow.
1. OC[C@H]1O[C@@H](O[C@@H]2[C@@H](CO)OC(O)(CO)[C@H]2O)[C@H](O)[C@@H](O)[C@H]1O (mixture of isomers)
2. Nc1ncnc2c1ncn2[C@@H]1O[C@H](CO)[C@@H](O)[C@H]1O
3. Cc1ccc(Cl)c(Nc2ccccc2C(=O)O)c1Cl [Meclofenamate Sodium]

Data returned:
1. 104
2. 100
3. 99

----------
target: recombinant PRL-2 (Homo sapiens); construct: 6xHis (N, cleaved yes); made in house; host or cells: E. coli One Shot BL21 Star; assay: In vitro phosphatase assay (DiFMUP hydrolysis), PRL-2; type: biochemical; conditions: FDA-approved drug screen; compared to DMSO;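 also: PRL-2 activity read as DiFMUP hydrolysis after 20 min at room temperature with drug, enzyme first pre-reduced at 4 °C for 20 min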
Sequence (Q12974 whole entry): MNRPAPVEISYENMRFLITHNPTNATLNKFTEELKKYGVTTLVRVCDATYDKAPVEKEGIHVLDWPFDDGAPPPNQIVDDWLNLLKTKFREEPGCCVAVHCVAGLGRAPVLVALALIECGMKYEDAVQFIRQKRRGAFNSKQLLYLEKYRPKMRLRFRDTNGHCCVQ
Provide the recorded % Phosphatase Activity (compared to DMSO) PRL-2 for the entries that follow.
One number for each entry, in %.

COMPOUND | NUMBER
Cc1cc(O)cc(C)c1Cl [Chloroxylenol] | 112

Give % Phosphatase Activity (compared to DMSO) PRL-2 for all compounds that follow.
1. Nc1cccc2c1C(=O)N(C1CCC(=O)NC1=O)C2=O (stereo not drawn) [Pomalidomide]
2. Cn1cnc2c(F)c(Nc3ccc(Br)cc3F)c(C(=O)NOCCO)cc21 [MEK162 (ARRY-162, ARRY-438162)]

Data returned:
1: 248; 2: 72

Give % Phosphatase Activity (compared to DMSO) PRL-2 for all compounds that follow.
1. Cc1ccc(F)c(NC(=O)Nc2ccc(-c3cccc4[nH]nc(N)c34)cc2)c1 [Linifanib (ABT-869)]
2. COCCCOc1ccnc(C[S+]([O-])c2nc3ccccc3[n-]2)c1C.[Na+] (stereo not drawn) [Rebeprazole sodium]
3. CC(=O)OCC(CCn1cnc2cnc(N)nc21)COC(C)=O [Famciclovir]

Data returned:
1. 151
2. 99
3. 115

Give % Phosphatase Activity (compared to DMSO) PRL-2 for all compounds that follow.
1. Cc1nc(Nc2ncc(C(=O)Nc3c(C)cccc3Cl)s2)cc(N2CCN(CCO)CC2)n1 [Dasatinib]
2. CCOC(=O)c1c(C)n(C)c2ccc(O)cc12 [Mecarbinate]
3. COc1ccc(CN2CCN(C(c3ccc(F)cc3)c3ccc(F)cc3)CC2)c(OC)c1OC.Cl.Cl [Lomerizine HCl]

Data returned:
88
100
118
